- TARGET_UNDER_TEST: recombinant human MAO-B (monoamine oxidase-B) (Homo sapiens)
- Construct: purchased Sigma-Aldrich
- ASSAY_PROCEDURE: Activity on recombinant human MAO-B, method similar to the VAP-1 assay
- Format: biochemical
- STUDY_CONDITIONS: substrate 1 mM benzylamine; read-out: Inhibitory Activity (IC50, nM) MAO-B
Structures can show the parent of a compound that is named as a salt.
MEASURED_QUANTITY: IC50 (nM)
# unit: nM | format: bare number

q: So what's the measured IC50 for this one? CN(C)S(=O)(=O)c1cccc(-c2ccc(Cn3cnn(C/C(=C/F)CN)c3=O)s2)c1
a: 220

q: So what's the measured IC50 for this one? NC/C(=C\F)Cn1ncn(Cc2ccc(C#Cc3cnc4c(c3)NCCO4)s2)c1=O
a: 750

q: So what's the measured IC50 for this one? CN(C)c1ccc(-c2ccc(CCn3cnn(C/C(=C/F)CN)c3=O)s2)cn1
a: 25000

q: So what's the measured IC50 for this one? NC/C(=C\F)Cn1ncn(Cc2ccc(Br)s2)c1=O [Example 2, hydrochloride]
a: 14

q: So what's the measured IC50 for this one? CN(C)c1cccc(-c2ccc(Cn3cnn(C/C(=C/F)CN)c3=O)s2)c1 [Example 4, hydrochloride]
a: 50

q: So what's the measured IC50 for this one? CN(C)c1ccc(/C=C/c2ccc(Cn3cnn(C/C(=C/F)CN)c3=O)s2)cc1
a: 340

q: So what's the measured IC50 for this one? NC/C(=C\F)Cn1ncn(Cc2ccc(-c3cc(F)c4c(c3)CNC4=O)s2)c1=O [Example 70, hydrochloride]
a: 2800

====

Catalogue of IC50 values
- TARGET_UNDER_TEST: recombinant human MAO-A (monoamine oxidase-A) (Homo sapiens)
- Construct: purchased Sigma-Aldrich
- Sequence (P21397 whole entry): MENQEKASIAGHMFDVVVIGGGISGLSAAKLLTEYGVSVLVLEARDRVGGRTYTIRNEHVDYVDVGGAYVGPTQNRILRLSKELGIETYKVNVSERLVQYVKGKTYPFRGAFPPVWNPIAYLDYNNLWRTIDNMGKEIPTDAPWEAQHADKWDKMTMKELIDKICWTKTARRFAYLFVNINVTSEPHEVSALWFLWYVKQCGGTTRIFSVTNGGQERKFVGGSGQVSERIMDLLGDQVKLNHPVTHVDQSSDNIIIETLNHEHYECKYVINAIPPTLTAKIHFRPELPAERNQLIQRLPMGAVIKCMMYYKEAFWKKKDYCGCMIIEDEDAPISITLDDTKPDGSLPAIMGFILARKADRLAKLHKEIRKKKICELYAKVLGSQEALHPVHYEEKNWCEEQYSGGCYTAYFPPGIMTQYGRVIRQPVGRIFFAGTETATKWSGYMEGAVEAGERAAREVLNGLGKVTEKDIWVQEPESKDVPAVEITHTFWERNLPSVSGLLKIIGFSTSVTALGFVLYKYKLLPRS
- ASSAY_PROCEDURE: Activity on recombinant human MAO-A, method similar to the VAP-1 assay
- Type: biochemical
- STUDY_CONDITIONS: substrate 0.5 mM tyramine; read-out: Inhibitory Activity (IC50, nM) MAO-A
Structures can show the parent of a compound that is named as a salt.

Before answering, review these 3 worked examples.
# MOLECULE, MEASURED_QUANTITY, MEASURED
measured = [
    ("NC/C(=C\\F)Cn1ncn(Cc2ccc(-c3ccc4c(c3)C(=O)NC4)s2)c1=O [Example 67, hydrochloride]", "IC50", "> 100000 nM"),
    ("NC/C(=C\\F)Cn1ncn(Cc2ccc(-c3ccc(S(=O)(=O)NC4CC4)cc3)s2)c1=O [Example 197]", "IC50", "> 100000 nM"),
    ("N#Cc1ncc(-c2ccc(Cn3cnn(C/C(=C/F)CN)c3=O)s2)cn1 [Example 54, hydrochloride]", "IC50", "> 10000 nM"),
]

Turning now to a further record.
q: So what's the measured IC50 for this one? CN1C(=O)CCc2cc(-c3ccc4sc(Cn5cnn(C/C(=C/F)CN)c5=O)cc4c3)ccc21 [Example 211]
a: 49000 nM

====

- TARGET_UNDER_TEST: recombinant human MAO-B (monoamine oxidase-B) (Homo sapiens, UniProt P27338)
- Construct: purchased Sigma-Aldrich
- Sequence (P27338 1-520): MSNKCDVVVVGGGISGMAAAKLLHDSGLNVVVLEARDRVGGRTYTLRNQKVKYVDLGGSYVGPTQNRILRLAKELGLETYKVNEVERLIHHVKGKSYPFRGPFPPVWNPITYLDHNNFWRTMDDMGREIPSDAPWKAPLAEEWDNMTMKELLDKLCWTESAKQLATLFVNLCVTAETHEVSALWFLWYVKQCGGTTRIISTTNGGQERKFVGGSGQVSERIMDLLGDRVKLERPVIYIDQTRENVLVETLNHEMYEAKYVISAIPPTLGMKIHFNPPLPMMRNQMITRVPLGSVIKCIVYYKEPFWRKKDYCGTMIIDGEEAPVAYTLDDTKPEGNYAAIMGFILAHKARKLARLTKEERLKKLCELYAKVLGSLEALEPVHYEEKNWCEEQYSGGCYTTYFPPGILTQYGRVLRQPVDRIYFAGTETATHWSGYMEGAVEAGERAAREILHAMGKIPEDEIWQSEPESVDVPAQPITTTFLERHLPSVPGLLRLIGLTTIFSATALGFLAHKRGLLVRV
- ASSAY_PROCEDURE: Activity on recombinant human MAO-B, method similar to the VAP-1 assay
- Type: biochemical
- STUDY_CONDITIONS: substrate 1 mM benzylamine; read-out: Inhibitory Activity (IC50, nM) MAO-B
Structures can show the parent of a compound that is named as a salt.
Catalogue of IC50 values

# MOLECULE, IC50
data = [
    ("NC/C(=C\\F)Cn1ncn(Cc2ccc(-c3cccc4ncccc34)s2)c1=O [Example 113, hydrochloride]", "160 nM"),
]

q: So what's the measured IC50 for this one? NC/C(=C\F)Cn1ncn(Cc2ccc(-c3ccc4c(c3)CNC4=O)s2)c1=O [Example 68, hydrochloride]
a: 1600 nM

q: So what's the measured IC50 for this one? NC/C(=C\F)Cn1ncn(Cc2ccc(C#CCN3CCS(=O)(=O)CC3)s2)c1=O [Example 132, hydrochloride]
a: 2500 nM

The measurements presented in this section are drawn from patent US11780830B2.
